- test_method_notes: modulators of CD8 T cell-vesicle binding, confirmation, cherry-picked primary hits, two concentrations (AID 2810);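 note: ratio of mean FL2 vesicle stain of CD8+ cells to that row's control; lower values mean blocking of vesicle binding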
- condition_info: 2C CD8+ T cell-vesicle binding, flow cytometry; at 15.4 µM
About 65 (5%) of roughly 1,200 compounds were called active.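 Rule for the calls: active = at either tested dose, response and 90th-percentile vesicle-stain brightness of CD8 cells under set limits and under 9% cells vesicle-bound; inactive = the rest.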 The entries come from a sample that favours actives as a whole.
I would appreciate it if you answered using one of these outcomes: active, inactive

(Q) For CCn1c(SCC(=O)NCC2CCCO2)nnc1-c1c[nH]c2ccccc12 (stereo unspecified) , which call appears in the assay record?
(A) inactive

(Q) For Cc1sc(NC(=O)CN2CCOCC2)c(C#N)c1C , which call appears in the assay record?
(A) inactive

(Q) For Cc1ccc(S(=O)(=O)Nc2c3ccccc3nc(=O)n2-c2ccccc2)cc1 , which call appears in the assay record?
(A) active

(Q) For COc1ccc(Cl)cc1NC(=O)/C=C/C(=O)O , which call appears in the assay record?
(A) inactive

(Q) For Cc1ccc(/C=N/Nc2ccc(F)cc2F)s1 , which call appears in the assay record?
(A) inactive

(Q) For O=C(Cn1cc(C(F)(F)F)cc(Cl)c1=O)NCCc1ccc(Cl)cc1Cl , which call appears in the assay record?
(A) active

(Q) For Cc1cccc(NC(=O)C2CCN(S(=O)(=O)c3c(C)[nH]c(=O)[nH]c3=O)CC2)c1 , which call appears in the assay record?
(A) inactive

(Q) For C=CCn1c(C)cc(-c2csc(NCC)n2)c1C , which call appears in the assay record?
(A) inactive

(Q) For O=C(Nc1ccccc1C(=O)NCc1cccnc1)c1ccccc1Cl , which call appears in the assay record?
(A) inactive

(Q) For Cn1c(SCC(=O)Nc2ccc3cn[nH]c3c2)nnc1-c1cccs1 , which call appears in the assay record?
(A) inactive

(Q) For Cc1cccc(NS(=O)(=O)c2ccc(Oc3ccccc3)cc2)n1 , which call appears in the assay record?
(A) inactive

====

Please provide measured percent response (vesicle binding) for the entries that follow.
- test_method_notes: modulators of CD8 T cell-vesicle binding, confirmation, cherry-picked primary hits, two concentrations (AID 2810);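 note: ratio of mean FL2 vesicle stain of CD8+ cells to that row's control; lower values mean blocking of vesicle binding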
- condition_info: 2C CD8+ T cell-vesicle binding, flow cytometry; response; at 7.7 µM
Out of some 1,200 compounds screened, about 65 (5%) were called active. The list comes from a sample in which actives are over-represented; it also holds close analogues and randomly drawn compounds.
Express it in %; write the number only.

Memo: CCOC(=O)N1CCN(C(=O)c2ccc(N3CCCC3=O)cc2)CC1 , reported percent response (vesicle binding): 150

Memo: O=C(c1ccc(Cl)cc1)N1CCC(C(=O)N2CCN(c3ncccn3)CC2)CC1 , reported percent response (vesicle binding): 114

Memo: O=C(c1ccco1)N1CCN(C(c2ccccc2Cl)c2nnnn2Cc2ccco2)CC1 (stereo unspecified) , reported percent response (vesicle binding): 456

Memo: CC(=O)c1ccc(OCc2cc(C(=O)N3CCCCC3c3cccnc3)no2)cc1 (stereo unspecified) , reported percent response (vesicle binding): 229

Memo: O=C(c1ccc(N2C(=O)C3CC=C(Cl)CC3C2=O)cc1)N1CCCCC1 (stereo unspecified) , reported percent response (vesicle binding): 195

Memo: S=c1sc2c(N3CCOCC3)ncnc2n1-c1ccccc1 , reported percent response (vesicle binding): 355

Memo: CCOC(=O)c1c(O)c2cc(Cl)ccc2n(CC)c1=O , reported percent response (vesicle binding): 127

Memo: O=C(c1ccco1)N1CCN(c2ncccn2)CC1 , reported percent response (vesicle binding): 331

Memo: CCN(CC)CCNC(=O)CCCNC(=O)Cn1cnc2sc(C)c(C)c2c1=O , reported percent response (vesicle binding): 375

Memo: CCc1c(C)nc(SCC(=O)Nc2nc(-c3ccc(OC)cc3)cs2)[nH]c1=O , reported percent response (vesicle binding): 289

Memo: OC[C@H]1O[C@@H](Oc2ccc3cc(Br)ccc3c2)[C@H](O)[C@@H](O)[C@H]1O , reported percent response (vesicle binding): 493

====

- test_method_notes: modulators of CD8 T cell-vesicle binding, confirmation, cherry-picked primary hits, two concentrations (AID 2810);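 note: ratio of mean FL2 vesicle stain of CD8+ cells to that row's control; lower values mean blocking of vesicle binding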
- condition_info: 2C CD8+ T cell-vesicle binding, flow cytometry; response; at 7.7 µM
In all, about 1,200 compounds went through this assay and about 65 (5%) were called active. Only a selection was taken, and actives are over-represented in it overall.
measurement_type: percent response (vesicle binding)
In your response, put the unit directly after the numeric value.

Memo: Cc1ccc(S(=O)(=O)N2CCN(c3ncnc4ccccc34)CC2)cc1 , reported percent response (vesicle binding): 116%

Memo: O=C(/C(=N\Nc1ccc(Br)cc1)Sc1nnnn1-c1ccccc1)c1ccccc1 , reported percent response (vesicle binding): 308%

Memo: CCOC(=O)c1ccc(S(=O)(=O)N2CCN(C3CCCC3)CC2)cc1 , reported percent response (vesicle binding): 107%

Memo: COc1ccc(F)c(CN2CCC(n3nccc3NC(=O)C3CCOC3)CC2)c1 (stereo not drawn) , reported percent response (vesicle binding): 538%

Memo: Cc1cccc(NS(=O)(=O)c2ccc(Oc3ccccc3)cc2)n1 , reported percent response (vesicle binding): 86.6%

Memo: COc1cc2ccccc2cc1C(=O)NC1CCCCC1 , reported percent response (vesicle binding): 368%

Memo: CC(C)(C)C(=O)Nc1ccc2c(c1)OCCOCCOc1cc(NC(=O)C(C)(C)C)ccc1OCCOCCO2 , reported percent response (vesicle binding): 910%

Memo: O=C(NC(=S)Nc1nc(-c2ccccc2)cs1)c1cccs1 , reported percent response (vesicle binding): 238%

Memo: CCN1CCN(c2ccc(NC(=O)c3cc4ccccc4cc3OC)cc2C)CC1 , reported percent response (vesicle binding): 373%

Memo: O=C(c1ccccc1Cl)N1CCCC(c2nc3c(nnn3Cc3ccccc3)c(=O)[nH]2)C1 (stereo not drawn) , reported percent response (vesicle binding): 181%

Memo: O=C1CC(c2nc3ccccc3[nH]2)CN1Cc1ccccc1 (stereo not drawn) , reported percent response (vesicle binding): 341%

Memo: CCOc1ccc(-c2nc(N)ncc2-c2ccccc2)c(O)c1 , reported percent response (vesicle binding): 51.6%

Memo: CCN1CCN(c2ccc(S(=O)(=O)N3CCCCC3)cc2NC(=O)c2cccc(C)c2[N+](=O)[O-])CC1 , reported percent response (vesicle binding): 406%

Memo: CC(=O)Nc1ccc(S(=O)(=O)NC2CCSc3ccccc32)cc1 (stereo not drawn) , reported percent response (vesicle binding): 238%

Memo: CCOc1ccccc1NC(=O)c1ccc(CN2CCc3ccccc3C2)cc1 , reported percent response (vesicle binding): 110%

Memo: Cc1sc(NC(=O)CN2CCOCC2)c(C#N)c1C , reported percent response (vesicle binding): 364%

Memo: CC(=O)COc1ccc2c(-c3ccccc3)cc(=O)oc2c1 , reported percent response (vesicle binding): 165%

Memo: CCNC(=O)CSc1nc(-c2ccccc2)cs1 , reported percent response (vesicle binding): 240%

Memo: COc1ccc(N(CC(=O)NCCC2=CCCCC2)S(=O)(=O)c2ccc(C)cc2)cc1OC , reported percent response (vesicle binding): 96.7%

Memo: CCCCn1c(-c2ccccc2)nnc1-c1ccccc1 , reported percent response (vesicle binding): 219%

Memo: CS(=O)(=O)NCc1ccccc1Br , reported percent response (vesicle binding): 371%

Memo: Nc1nc(SCCO)[nH]c(=O)c1NC(=O)c1ccc(Br)o1 , reported percent response (vesicle binding): 383%

Memo: CC1c2ccsc2CCN1C(=O)NC(=O)c1ccc(Cl)cc1 (stereo not drawn) , reported percent response (vesicle binding): 486%

====

Please provide measured percent response (vesicle binding) for the entries that follow.
- test_method_notes: modulators of CD8 T cell-vesicle binding, confirmation, cherry-picked primary hits, two concentrations (AID 2810);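 note: ratio of mean FL2 vesicle stain of CD8+ cells to that row's control; lower values mean blocking of vesicle binding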
- condition_info: 2C CD8+ T cell-vesicle binding, flow cytometry; response; at 7.7 µM
The whole screen tested about 1,200 compounds, of which about 65 (5%) were called active. Only a selection was taken, and actives are over-represented in it overall.
Express it in %; write the number only.

Memo: CCc1noc(C)c1C(=O)OC(C)C(=O)Nc1ccc2c(c1)OCO2 (stereo unspecified) , reported percent response (vesicle binding): 329

Memo: COc1ccc([C@H]2CC(=O)C=C(c3ccc(OC)nc3)C2)cc1 , reported percent response (vesicle binding): 129

Memo: COc1ccccc1CNC(=O)COc1ccc(C)cc1 , reported percent response (vesicle binding): 222

Memo: COc1ccc(C(=O)N2CCN(c3ccc(NC(=O)Cc4ccccc4)cc3)CC2)cc1 , reported percent response (vesicle binding): 635

Memo: COc1ccccc1CNC(=O)c1ccc(N(C)S(=O)(=O)c2ccc(C)cc2)cc1 , reported percent response (vesicle binding): 152

Memo: COc1ccccc1CNC(=O)CN(Cc1ccc(Cl)cc1)S(C)(=O)=O , reported percent response (vesicle binding): 441

Memo: COc1ccccc1CNC(=O)C1CCC1 , reported percent response (vesicle binding): 953

Memo: COC(=O)CN1C(=S)N(C)C(=O)C1CC(=O)Nc1ccccc1 (stereo unspecified) , reported percent response (vesicle binding): 896

Memo: COc1ccc(S(=O)(=O)N(C)c2ccc(C(=O)NCC3CCCO3)cc2)cc1OC (stereo unspecified) , reported percent response (vesicle binding): 413

Memo: Cc1cc2ncn(C(=O)N3CCCCCC3)c2cc1C , reported percent response (vesicle binding): 241

Memo: COc1cc(CC(=O)OCC(=O)NCc2ccc(C)cc2)cc(OC)c1OC , reported percent response (vesicle binding): 165
